System: CEM-SS cells
measurement kind: CC50

Q. Give a short answer stating reported CC50 for `Cc1cn([C@H]2C[C@H](N=[N+]=[N-])[C@@H](CO)O2)c(=O)[nH]c1=O` .
A. > 1000 nM

----------
test summary: Compound cytotoxicity in HSV Cytoprotection assay (MTS)
Assay type: cell-based
condition summary: African green monkey (Cercopithecus aethiops), Vero cells (uninfected, cells plus compound only), read-out: TC50
measurement kind: CC50 at 5 days

Q. Give a short answer stating reported CC50 at 5 days for Nc1nc2c(ncn2COCCO)c(=O)[nH]1 [Acyclovir, acyclovir] .
A. > 100 µM
